- assay_summary: chemical genetic growth profiling, strain panel (AID 1159580);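 also: tested at 20 µM; growth read once vehicle control cultures reached saturation at 30 °C; 1 = growth at the plate median or of vehicle wells; lower values mean less growth of the strain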
- test_settings: S. cerevisiae deletion strains, growth OD, locus YGR252W, strain gcn5, stronger effect = lower value
Hit rate of the full screen: of about 5,500 compounds, about 2,000 (36%) were called active. About 18% were inconclusive and are not listed. The list shows a part of the results.
Binarize normalized growth at 1; below is criterion met, at or above is criterion not met.

Example results:
{"compound_string": "CC(C)(C)CC(C)(C)c1ccc(O)c(Cc2ccc(Cl)cc2Cl)c1", "category": "criterion not met"}
{"compound_string": "O=C(O)c1ccccc1-c1c2cc(Br)c(=O)cc-2oc2[c]([Hg])c(O)c(Br)cc12", "category": "criterion met"}
{"compound_string": "Cc1ccc(Cl)c(Nc2ccccc2C(=O)O)c1Cl", "category": "criterion met"}
{"compound_string": "CO/N=C(\\C(=O)N[C@@H]1C(=O)N2C(C(=O)O)=C(COC(C)=O)CS[C@H]12)c1csc(N)n1", "category": "criterion not met"}
{"compound_string": "Cc1cc(-c2ccccc2)nnc1NCCN1CCOCC1", "category": "criterion not met"}
{"compound_string": "Oc1ccc(Cl)cc1Cc1cc(Cl)ccc1O", "category": "criterion met"}

Please look at the following molecule next.
# input # strict comparison: is reported normalized growth < 1? input = Cc1ccc(C)c(OCCCC(C)(C)C(=O)O)c1
# output criterion met

----------
- assay_summary: chemical genetic growth profiling, strain panel (AID 1159580);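 also: tested at 20 µM; growth read once vehicle control cultures reached saturation at 30 °C; 1 = growth at the plate median or of vehicle wells; lower values mean less growth of the strain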
- test_settings: S. cerevisiae deletion strains, growth OD, locus YDR150W, strain NUM1
Among all 5,500 compounds or so, about 2,000 (36%) were called active. Inconclusive results (about 18%) are left out. Cut-off read from the data, not from the text of the source: active = normalized growth mostly below about 0.91 (no sharp cut-off); inconclusive = no clear call, values can overlap the other calls; inactive = mostly above about 0.92. The list shows a part of the results.
The categories you may choose from are TRUE for active, FALSE for inactive

{"compound": "O=C1NC(=O)C(=O)C(=O)N1", "category": "FALSE"}
{"compound": "O=C(c1ccc(-c2ccccc2)cc1)c1cc2cc([N+](=O)[O-])ccc2o1", "category": "FALSE"}
{"compound": "c1ccc(-c2cc3c(ccc4nonc43)nn2)cc1", "category": "FALSE"}
{"compound": "CC(=O)OCC[C@H](C)CCC=C(C)C", "category": "FALSE"}
{"compound": "N#CCC(=O)Nc1ccccn1", "category": "FALSE"}

# input Hi, do you know how CO[C@@]1(NC(=O)CSCC#N)C(=O)N2C(C(=O)O)=C(CSc3nnnn3C)CSC21 (stereo partly drawn) came out in this test?
# output FALSE

----------
- assay_summary: chemical genetic growth profiling, strain panel (AID 1159580);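 also: tested at 20 µM; growth read once vehicle control cultures reached saturation at 30 °C; 1 = growth at the plate median or of vehicle wells; lower values mean less growth of the strain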
- test_settings: S. cerevisiae deletion strains, growth OD, locus YKL190W, strain CNB1, stronger effect = lower value
Screen size: about 5,500 compounds; about 2,000 (36%) were called active. Roughly 18% stayed inconclusive and do not appear here. The list shows a part of the results.
The following compounds are listed with their measured normalized growth values.
Lab note: write the figure by itself, no unit.

# annotated cases, reported normalized growth shown
{"compound": "COc1ccc2c(c1)CCC(c1ccccc1)=C2c1ccc(OCCN2CCCC2)cc1", "recorded_value": 0.524}
{"compound": "COc1cc([C@@H]2c3cc4c(c(O)c3C[C@H]3COC(=O)[C@@H]32)OCO4)cc(OC)c1OC", "recorded_value": 0.986}
{"compound": "COc1ccc(CCN2CCC(Nc3nc4ccccc4n3Cc3ccc(F)cc3)CC2)cc1", "recorded_value": 0.992}
{"compound": "O=C(CSCc1cccc2ccccc12)NNC(=O)c1ccc(F)cc1", "recorded_value": 0.991}
{"compound": "COc1ccc2c(c1OC)C(=O)OC2[C@H]1c2c(cc3c(c2OC)OCO3)CCN1C (stereo not given in full)", "recorded_value": 0.995}

Entry CC(=O)OCC[C@H](C)CCC=C(C)C ; normalized growth = 1.01

Entry CC(C)(C)CC(C)(C)c1ccc(O)c(Cc2ccc(Cl)cc2Cl)c1 ; normalized growth = 1

Entry O=C(c1ccc(-c2ccccc2)cc1)c1cc2cc([N+](=O)[O-])ccc2o1 ; normalized growth = 0.993

Entry N#Cc1c(N)oc(-c2ccco2)c1-c1ccco1 ; normalized growth = 0.992

Entry C#CCCCCCCCCCCCC(O)CC(O)COC(C)=O (stereo not given) ; normalized growth = 0.986

Entry COc1ccc2c(c1)O[C@H]1c3ccc(OC)cc3OC[C@@H]21 ; normalized growth = 1.01

Entry CSC(=NS(=O)(=O)c1ccccc1)SC ; normalized growth = 1

Entry COc1ccc([C@H]2Oc3cc(OC)cc(OC)c3C[C@H]2O)cc1 ; normalized growth = 1.02

Entry OCc1ccccc1O ; normalized growth = 1.01

Entry CC(C)NNC(=O)c1ccncc1 ; normalized growth = 1

Entry CC(=O)OCC(COC(C)=O)OC(C)=O ; normalized growth = 1.01

Entry C#CCCCCCCCCCCCC(O)CC(O)CO (stereo not given) ; normalized growth = 0.999
